experiment: protein stability index of a GFP-peptide fusion (yeast GPS) (PSI 1-4); higher = more stable; sorted into four equal gates, so the index is relative within each strain; conditions: san1∆
Just so you know, the groups by protein stability index go like this: low (below 2), middle (2 to below 3), high (3 or more)

{"Sequence string": "TLKNRGLPLGIAEEKMW [YGR119C/NUP57]", "Qualitative label": "low"}
{"Sequence string": "LITSSARKELPIFDYIH [SIR3]", "Qualitative label": "low"}
{"Sequence string": "IKVLLRQNRRPELGDKF [RET1]", "Qualitative label": "high"}
{"Sequence string": "SFTSQGTISIQLKNGLL [MTR3]", "Qualitative label": "middle"}
{"Sequence string": "KQINEARDEILPLRLQF [PGD1]", "Qualitative label": "middle"}
{"Sequence string": "LGPLSYQNMAFITAKDK [YJR042W/NUP85]", "Qualitative label": "middle"}
{"Sequence string": "IVTALLESDVNIALVSK [SRP54]", "Qualitative label": "high"}
{"Sequence string": "PVRPVRVRHEDVETVKR [RPC53]", "Qualitative label": "middle"}
{"Sequence string": "QRTCLMTVTFLILAGQV [YCS4]", "Qualitative label": "low"}
{"Sequence string": "EYYRIQKQLPQKTRVKL [ESC2]", "Qualitative label": "middle"}
{"Sequence string": "AQFQYTLDRNTAAETFK [RPL8A]", "Qualitative label": "middle"}
{"Sequence string": "KYLEQVLDHQRAIPFRR [RPL17A]", "Qualitative label": "low"}
{"Sequence string": "RSQDQENPAFLPGTNNN [SEC65]", "Qualitative label": "middle"}

---

assay: protein stability index of a GFP-peptide fusion (yeast GPS) (PSI 1-4); higher = more stable; sorted into four equal gates, so the index is relative within each strain; settings: san1∆
// values below are reported protein stability index
Measurement kind: protein stability index

{"Sequence string": "QHYKNNSISSQPASYHS [SSN2]", "Measurement kind": "protein stability index", "Value reported": 3.05}
{"Sequence string": "LQDVIALSIADDASSAE [RPC53]", "Measurement kind": "protein stability index", "Value reported": 2.16}
{"Sequence string": "IHLQRFDEGTTLLSPKD [RPO21]", "Measurement kind": "protein stability index", "Value reported": 2.91}

---

assay: protein stability index of a GFP-peptide fusion (yeast GPS) (PSI 1-4); higher = more stable; sorted into four equal gates, so the index is relative within each strain; conditions: pdr5∆
// values below are reported protein stability index
Measurement kind: protein stability index

{"Sequence string": "YGRDDMENIKKSIDSKT [ISW2]", "Value reported": 2.94}
{"Sequence string": "LQLNEAEEFVAGVSHGT [SMX3]", "Value reported": 2.96}
{"Sequence string": "SADCELLGIDATVPSGR [RPO31]", "Value reported": 3.06}
{"Sequence string": "VKAILMQRHVKVDGKVR [RPS4A]", "Value reported": 3.09}

---

test: protein stability index of a GFP-peptide fusion (yeast GPS) (PSI 1-4); higher = more stable; sorted into four equal gates, so the index is relative within each strain; settings: doa10∆
Rule: protein stability index of 3 or more gives true; anything lower gives false.

{"Sequence string": "TFSWLNAELLDYLFHLL [YLR018C/POM34]", "Qualitative label": "false"}
{"Sequence string": "KDHLLGRLASTIAKQVL [RPL16B]", "Qualitative label": "false"}
{"Sequence string": "IFCIDLEVFHHFFKWIE [SRB8]", "Qualitative label": "false"}
{"Sequence string": "LSASWDKTLRLWDVATG [ASC1]", "Qualitative label": "true"}
{"Sequence string": "ADIENSTSGDPSEFHCL [SSN2]", "Qualitative label": "true"}
{"Sequence string": "RQQYYSGVQVGGVGSMG [SNF6]", "Qualitative label": "false"}
{"Sequence string": "SIMPDLYFYRDPEEVEQ [RPS0A]", "Qualitative label": "false"}
{"Sequence string": "TGETYQRFVGHKSDVMS [ASC1]", "Qualitative label": "false"}
{"Sequence string": "FMEAQGAGIQIIMQADL [FAS2]", "Qualitative label": "false"}
{"Sequence string": "LKTKLLEEVEGSCTGKF [RPB7]", "Qualitative label": "true"}
{"Sequence string": "EIDVENHDRINISNNLQ [RPN8]", "Qualitative label": "true"}
{"Sequence string": "ELNVDSMDVDDKNSGVK [ITC1]", "Qualitative label": "false"}
{"Sequence string": "PMASSSSFGSESLTFNE [SWI1]", "Qualitative label": "true"}
{"Sequence string": "FIDHHAAIRQPTRYVLI [POP1]", "Qualitative label": "false"}
{"Sequence string": "VRAVNTGMEPGKTSFFQ [RPP0]", "Qualitative label": "false"}
{"Sequence string": "LVSSYLNKSDLLDKYGK [YML103C/NUP188]", "Qualitative label": "false"}
{"Sequence string": "DSTPEEVSCKLLETITY [YML103C/NUP188]", "Qualitative label": "false"}
{"Sequence string": "THLEIEPFTILGAVAGL [RET1]", "Qualitative label": "false"}

---

assay: protein stability index of a GFP-peptide fusion (yeast GPS) (PSI 1-4); higher = more stable; sorted into four equal gates, so the index is relative within each strain; conditions: san1∆
Rule: protein stability index of 3 or more gives 1.0; anything lower gives 0.0.

{"Sequence string": "VFSHAQTAVTCESCSTV [RPS27B]", "Qualitative label": 0.0}
{"Sequence string": "AIQMVDPASFYLFDEID [SMC3]", "Qualitative label": 0.0}
{"Sequence string": "PSAFNFTGNNSTPGGGS [YOR098C/NUP1]", "Qualitative label": 1.0}
{"Sequence string": "IGIVEIAHENEQKWLIY [SRB8]", "Qualitative label": 0.0}
{"Sequence string": "QQMHEVRKELRGRAVVL [RPP0]", "Qualitative label": 1.0}
{"Sequence string": "ELTDNMSDFVPIDAGLN [MCD1]", "Qualitative label": 0.0}
{"Sequence string": "IPLGKNVVVKWQGKPVF [RIP1]", "Qualitative label": 1.0}
{"Sequence string": "ASLALAHVFVGTCNGDI [RPN1]", "Qualitative label": 0.0}
{"Sequence string": "VQDLGSAISVTNVEDPL [SIR2]", "Qualitative label": 0.0}
{"Sequence string": "DTPTSGKHNLTIWCVCD [BRR2]", "Qualitative label": 1.0}
{"Sequence string": "IRAELLNDRKVLFAAYK [RPB11]", "Qualitative label": 0.0}
{"Sequence string": "ALLRENQDSVKTYALES [RPN2]", "Qualitative label": 0.0}
{"Sequence string": "GIKATNGVVIATEKKSS [PRE8]", "Qualitative label": 0.0}
{"Sequence string": "IWVGEWKEVLAHNPELE [RPO31]", "Qualitative label": 0.0}
{"Sequence string": "SKKSTITVRYWLNGKMD [RGR1]", "Qualitative label": 0.0}
{"Sequence string": "RYNRAVPDSKIRIYDLG [RPL10]", "Qualitative label": 0.0}

---

test: protein stability index of a GFP-peptide fusion (yeast GPS) (PSI 1-4); higher = more stable; sorted into four equal gates, so the index is relative within each strain; conditions: pdr5∆
Measurement kind: protein stability index

{"Sequence string": "SMILEAISTDKINPFGF [RRI2]", "Value reported": 3.01}
{"Sequence string": "SMINSVSPTNVMGTPLT [PGD1]", "Value reported": 2.94}
{"Sequence string": "ESLKNLNESRSQHKKIL [SMC3]", "Value reported": 3.05}
{"Sequence string": "AVAGLTADAEILINTAR [PRE9]", "Value reported": 3.02}
{"Sequence string": "VNQTGSTKKDTVQLTFL [YCG1]", "Value reported": 3}
{"Sequence string": "YEFPIEGIEIYDRKKLP [RPC11]", "Value reported": 3.01}
{"Sequence string": "MQDPDGIDINTKIFNSV [YCG1]", "Value reported": 3.04}
{"Sequence string": "QLRKEIQLLDENVGTRL [MED11]", "Value reported": 3.09}
{"Sequence string": "QFSQLNDPNAAVNMTQN [MED6]", "Value reported": 2.91}
{"Sequence string": "NSMDISMFSGLDSTGFD [MED2]", "Value reported": 3.06}
{"Sequence string": "NTENNDPDIPMTIDLEP [IRR1]", "Value reported": 2.94}
{"Sequence string": "DAKTSYPNEVLKFNHGN [REC8]", "Value reported": 2.95}

---

assay: protein stability index of a GFP-peptide fusion (yeast GPS) (PSI 1-4); higher = more stable; sorted into four equal gates, so the index is relative within each strain; settings: san1∆
Measurement kind: protein stability index

{"Sequence string": "APYRKQIISNAHNKPSL [YAR002W/NUP60]", "Value reported": 2}
{"Sequence string": "KPKKPKGRAYKRLLYTR [RPS30A]", "Value reported": 3.02}
{"Sequence string": "KNDDNSCRNPEHTDVID [YIL149C/MLP2]", "Value reported": 2.98}
{"Sequence string": "LYTLVINDAGKAKKLIQ [RPL38]", "Value reported": 1.99}
{"Sequence string": "EQPCVDIISGKIHSILP [YJR042W/NUP85]", "Value reported": 3}
{"Sequence string": "KPEIDENGTLLVPPPRT [RPR2]", "Value reported": 2.99}
{"Sequence string": "NATHDEDEFIVQHDQIL [SWP82]", "Value reported": 2.96}
{"Sequence string": "KDENNTANDQYSSILGN [YCG1]", "Value reported": 3.01}
{"Sequence string": "GSELVQKYVGEGARMVR [RPT1]", "Value reported": 3}
